Biological target: 17β-hydroxysteroid dehydrogenase type 3 (Homo sapiens, UniProt P37058)
Construct: expressed in transfected cells; host or cells: MCF-7
Sequence (P37058 1-310): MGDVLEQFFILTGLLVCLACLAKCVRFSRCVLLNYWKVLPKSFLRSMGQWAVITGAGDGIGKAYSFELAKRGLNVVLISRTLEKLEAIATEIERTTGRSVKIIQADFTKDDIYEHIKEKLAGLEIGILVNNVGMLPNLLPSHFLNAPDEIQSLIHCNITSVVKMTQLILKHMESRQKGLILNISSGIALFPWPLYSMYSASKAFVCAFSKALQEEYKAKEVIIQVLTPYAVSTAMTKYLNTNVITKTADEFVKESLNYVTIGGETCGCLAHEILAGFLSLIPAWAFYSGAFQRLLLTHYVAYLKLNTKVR
Assay: Inhibition of 17β-HSD type 3 in MCF-7 cells stably expressing the isoenzyme (HPLC, tritium labeled androstenedione)
Type: cell-based
Conditions: MCF7, 1 μM compound, 2 nM androstenedione, read-out: % Inhibition of the 17β-HSD enzyme type 3 (HSD3)

molecule	inhibition at 1 µM
CCCSC1=C(C=O)CCc2c1sc1nc3n(c(=O)c21)CCCCCC3	22.5%
CCSC1=C(C=O)CCc2c1sc1nc3n(c(=O)c21)CCCCC3	43.4%
CC1CCc2c(sc3nc4n(c(=O)c23)CCCCC4)C1 (centres unmarked)	22.9%
O=c1c2c3c(sc2nc2n1CCCCC2)CCCC3	39%
CCCCSC1=C(C=O)CCc2c1sc1nc3n(c(=O)c21)CCCCC3	32.6%
O=CC1=C(Cl)c2sc3nc4n(c(=O)c3c2CC1)CCCCCC4C=O (centres unmarked)	7.3%
CCCSC1=C(CO)CCc2c1sc1nc3n(c(=O)c21)CCCCC3	20.4%
O=c1c2c3c(sc2nc2ccccn12)CCCC3	-3.2%
O=C1CCCc2c1sc1nc3ccccn3c(=O)c21	-2.1%
CCOC(=O)C1CCCn2c1nc1sc3c(c1c2=O)CCCC3 (centres unmarked)	-0.3%
O=C1CCCc2c1sc1nc3n(c(=O)c21)CCCCCC3	15.3%
O=c1c2c3c(sc2nc2n1CCCCC2)CCC3	4.2%
CCc1nc2sc3c(c2c(=O)n1C)CCCC3	4.4%
O=C1CCCc2c1sc1nc3n(c(=O)c21)CCC3	43.9%

###

target: 17β-hydroxysteroid dehydrogenase type 2 (Homo sapiens, UniProt P37059); construct: expressed in transfected cells; host or cells: MCF-7; assay: Inhibition of 17β-HSD type 2 in MCF-7 cells stably expressing the isoenzyme (HPLC, tritium labeled estradiol); assay type: cell-based; conditions: MCF7, 1 μM compound, 2 nM estradiol, read-out: % Inhibition of the 17β-HSD enzyme type 2 (HSD2)
Sequence (P37059 whole entry): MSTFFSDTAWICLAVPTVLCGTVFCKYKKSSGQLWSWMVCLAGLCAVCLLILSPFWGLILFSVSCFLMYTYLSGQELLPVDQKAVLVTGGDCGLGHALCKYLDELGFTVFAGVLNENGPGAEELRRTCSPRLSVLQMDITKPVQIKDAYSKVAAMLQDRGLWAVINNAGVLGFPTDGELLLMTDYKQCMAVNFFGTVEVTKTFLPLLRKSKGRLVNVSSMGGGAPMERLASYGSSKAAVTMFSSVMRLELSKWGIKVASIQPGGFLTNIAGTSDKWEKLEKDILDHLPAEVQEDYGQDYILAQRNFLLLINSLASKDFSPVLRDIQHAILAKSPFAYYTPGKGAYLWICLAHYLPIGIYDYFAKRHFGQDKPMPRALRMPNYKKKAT
Quick rule for you: inhibition at 1 µM at 10% or higher means met, lower means not met.

compound	qualitative label
CC(C)SC1=C(C=O)CCc2c1sc1nc3n(c(=O)c21)CCCCC3	not met
CCOC(=O)C1CCCn2c1nc1sc3c(c1c2=O)CCCC3=O (stereo not drawn)	met
O=c1c2c3c(sc2nc2n1CCC(CO)CC2)CCCC3 (stereo not drawn)	met
CC1CCc2nc3sc4c(c3c(=O)n2CC1)CCCC4=O (stereo not drawn)	met
CC1CCc2nc3sc4c(c3c(=O)n2CC1)CCC(C=O)=C4Cl (stereo not drawn)	met
O=C1CCCc2c1sc1nc3n(c(=O)c21)CCCCCC3	met

###

The reader will find reported inhibition at 1 µM values listed item by item below.
molecular target: 17β-hydroxysteroid dehydrogenase type 1 (Homo sapiens, UniProt P14061); construct: expressed in transfected cells; host or cells: MCF-7; assay: Inhibition of 17β-HSD type 1 in MCF-7 cells stably expressing the isoenzyme (HPLC, tritium labeled estrone); type: cell-based; details: MCF7, 1 μM compound, 2 nM estrone, read-out: % Inhibition of the 17β-HSD enzyme type 1 (HSD1)
Sequence (P14061 whole entry): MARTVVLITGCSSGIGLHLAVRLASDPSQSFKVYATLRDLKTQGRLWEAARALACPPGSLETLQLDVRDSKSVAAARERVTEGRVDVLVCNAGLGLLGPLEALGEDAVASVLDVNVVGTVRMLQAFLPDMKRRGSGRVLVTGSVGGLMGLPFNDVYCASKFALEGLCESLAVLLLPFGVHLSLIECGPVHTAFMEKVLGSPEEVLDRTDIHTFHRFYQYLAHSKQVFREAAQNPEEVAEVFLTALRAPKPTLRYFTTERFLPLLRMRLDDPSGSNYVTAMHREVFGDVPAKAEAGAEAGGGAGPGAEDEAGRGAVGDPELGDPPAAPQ

compound	inhibition at 1 µM (%)
Cn1cnc2sc3c(c2c1=O)CCC(C=O)=C3Cl	23.5
CCCSC1=C(CO)CCc2c1sc1nc3n(c(=O)c21)CCCCC3	47.7
Cc1nc2sc3c(c2c(=O)n1C)CCCC3	30.7
O=c1c2c3c(sc2nc2n1CCCCCC2)C(O)CCC3 (stereo not drawn)	5
CC(C)SC1=C(C=O)CCc2c1sc1nc3n(c(=O)c21)CCCCC3	71.9
CCCSC1=C(C=O)CCc2c1sc1nc3n(c(=O)c21)CCC(C(=O)O)CC3 (stereo not drawn)	15.3
CCOC(=O)C1CCCn2c1nc1sc3c(c1c2=O)CCCC3=O (stereo not drawn)	0.5
O=c1c2c3c(sc2nc2ccccn12)CCCC3	6.2
CCc1nc2sc3c(c2c(=O)n1C)CCCC3	12.7
